Overview of reported normalized growth across a group of compounds:
Assay: chemical genetic growth profiling, strain panel (AID 1159580);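 further: tested at 20 µM; growth read once vehicle control cultures reached saturation at 30 °C; 1 = growth at the plate median or of vehicle wells; lower values mean less growth of the strain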
Conditions: S. cerevisiae deletion strains, growth OD, locus YMR223W, strain ubp8, active compounds read low
Hit rate of the full screen: of about 5,500 compounds, about 2,000 (36%) were called active. Inconclusive results (about 18%) are left out. The list shows a part of the results.
The response must contain the number and no unit.

Lookup: What value of measured normalized growth is listed for "CCOP(=S)(OCC)SCn1c(=O)oc2cc(Cl)ccc21" ?
Found: 0.998

Lookup: What value of measured normalized growth is listed for "O=C(CCCCCCCCCCCCC1CCCC1)Nc1ccc(S(=O)(=O)c2ccc(NC(=O)CCCCCCCCCCCCC3CCCC3)cc2)cc1" ?
Found: 0.989

Lookup: What value of measured normalized growth is listed for "Oc1c(Br)cc(Br)c2cccnc12" ?
Found: 0.0723

Lookup: What value of measured normalized growth is listed for NCC(O)c1ccc(O)cc1 (stereo unspecified) ?
Found: 0.997

Lookup: What value of measured normalized growth is listed for "Oc1c(Cl)cc(Cl)c2cccnc12" ?
Found: 0.0733

Lookup: What value of measured normalized growth is listed for "NC[C@H](O)c1ccc(O)c(O)c1" ?
Found: 0.99
